system: HRV-1A; test: Antirhinoviral H1-HeLa cell culture assay (XTT), HRV-1A; format: cell-based, human rhinovirus; conditions: Rhinovirus A, HRV1A, H1-HeLa cells
READOUT_NAME: EC50 (nM)
Answers are plain numbers, in nM.

According to the records, this compound Cc1cc(C(=O)N[C@H](C(=O)N[C@@H](Cc2ccc(F)cc2)C(=O)N[C@@H](C[C@@H]2CCNC2=O)C(=O)c2nc3ccccc3s2)C(C)C)no1 displays EC50 of 337

* * *

assay: Cytotoxicity in uninfected H1-HeLa cells (anticoxsackieviral assay, XTT); format: cell-based; conditions: human, CAV-21
READOUT_NAME: CC50 at 2 days
Respond with the figure and its unit, in that order.

CC50 at 2 days reported for this compound Cc1cc(C(=O)N[C@H](C(=O)N[C@@H](Cc2ccc(F)cc2)C(=O)N[C@@H](C[C@@H]2CCNC2=O)C(=O)c2nc3ccccc3s2)C(C)C)no1 [Compound 28] : 251 µM

* * *

assay: Cytotoxicity in uninfected H1-HeLa cells (anticoxsackieviral assay, XTT); type: cell-based; details: human, CVB3
READOUT_NAME: CC50 at 1 day (µM)
Numbers only, in µM.

The molecule listed as Cc1cc(C(=O)N[C@H](C(=O)N[C@@H](Cc2ccc(F)cc2)C(=O)N[C@@H](C[C@@H]2CCNC2=O)C(=O)c2nc3ccccc3s2)C(C)C)no1 [Compound 28] shows CC50 at 1 day equal to 251

* * *

Would you kindly list Ki for each of these molecules?
Biological target: recombinant rhinovirus 3C protease, serotype 14 (Human rhinovirus 14, UniProt P03303)
Construct: Recombinant rhinovirus 3C proteases; made in house
Sequence (P03303 1538-1719): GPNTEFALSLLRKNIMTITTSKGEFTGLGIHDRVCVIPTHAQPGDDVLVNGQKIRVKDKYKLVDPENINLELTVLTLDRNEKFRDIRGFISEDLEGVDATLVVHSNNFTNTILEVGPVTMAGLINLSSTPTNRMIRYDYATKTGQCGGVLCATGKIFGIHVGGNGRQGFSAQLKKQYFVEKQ
Assay: Inhibition of rhinovirus 3C protease (FRET assay), serotype 14
Assay type: biochemical
Experimental: Stock solutions (50 mM, in DMSO) of various compounds were prepared; dilutions were in the same solvent. […] RVP activity was measured in the fluorescence resonance energy transfer assay. […]

Below, each entry is followed by its recorded Ki result.
compound_string=CC(=O)NC[C@H](NC(=O)[C@H](Cc1ccccc1)NC(=O)[C@H](CC(C)C)NC(=O)OCc1ccccc1)C(=O)C(=O)N1CCCCC1 measured_value="> 110 µM"
compound_string=COCC#CC(=O)[C@H](CNC(C)=O)NC(=O)[C@H](Cc1ccccc1)NC(=O)[C@H](CC(C)C)NC(=O)OCc1ccccc1 measured_value="0.075 µM"

Now for the molecule whose Ki we want.
// Ki value for CC(=O)NC[C@H](NC(=O)[C@H](Cc1ccccc1)NC(=O)[C@H](CC(C)C)NC(=O)OCc1ccccc1)C(=O)c1nc2ccccc2s1 : 1.7 µM

* * *

target: recombinant rhinovirus 3C protease, serotype 14 (Human rhinovirus 14, UniProt P03303); construct: Recombinant rhinovirus 3C proteases; made in house; experiment: Inhibition of rhinovirus 3C protease (FRET assay), serotype 14; assay type: biochemical
Can you tell me Ki for the items I'm about to list?
Numbers only, in µM.

Solved entries (count: 4):
compound=CSCC(=O)[C@H](CCC(=O)NC(c1ccccc1)(c1ccccc1)c1ccccc1)NC(=O)[C@H](Cc1ccccc1)NC(=O)[C@H](CC(C)C)NC(=O)OCc1ccccc1 unit_text=µM measured_value=9
compound="CC(=O)[C@H](C[C@@H]1CCNC1=O)NC(=O)[C@H](Cc1ccccc1)NC(=O)[C@H](CC(C)C)NC(=O)OCc1ccccc1 [Compound 24, Cbz-L-Leu-L-Phe-L-[(S)-Pyrrol-Ala]-CH3]" unit_text=µM measured_value=0.65
compound=CC(C)C[C@H](NC(=O)OCc1ccccc1)C(=O)N[C@@H](Cc1ccccc1)C(=O)N[C@@H](CNC(=O)OC(C)(C)C)C(=O)c1ccccn1 unit_text=µM measured_value=71
compound=C=CC(=O)[C@H](CNC(C)=O)NC(=O)[C@H](Cc1ccccc1)NC(=O)[C@H](CC(C)C)NC(=O)OCc1ccccc1 unit_text=µM measured_value=0.098

Okay, now this compound:
Form field Ki, entry COCC(=O)[C@H](CNC(C)=O)NC(=O)[C@H](Cc1ccccc1)NC(=O)[C@H](CC(C)C)NC(=O)OCc1ccccc1 : 27

* * *

assay: in vitro; conditions: human, mock-infected H1-HeLa cells
READOUT_NAME: CC50 at 2 days

Use the examples below as a reference point.
compound="C#CC(=O)[C@H](CNC(C)=O)NC(=O)[C@H](Cc1ccccc1)NC(=O)[C@H](CC(C)C)NC(=O)OCc1ccccc1 [Compound 14, Cbz-L-Leu-L-Phe-L-(N-Ac-amino-Ala)-C≡CH]" readout_name="CC50 at 2 days" measured_value="> 100 µM"
compound="Cc1cc(CCCOc2c(C)cc(-c3noc(C(F)(F)F)n3)cc2C)on1 [Pleconaril, reference compound]" readout_name="CC50 at 2 days" measured_value="> 10 µM"

Here is another compound to look at.
Lab note: measured CC50 at 2 days of CC(C)C[C@H](NC(=O)OCc1ccccc1)C(=O)N[C@@H](Cc1ccccc1)C(=O)N[C@@H](C[C@@H]1CCNC1=O)C(=O)c1cc2ccccc2s1 [Compound 25] was > 10 µM

* * *

Assay: Cytotoxicity in uninfected MRC-5 cells (anti-echoviral assay, XTT)
Type: cell-based
Conditions: human, ECHO-11 row
Procedure: Echovirus type 11 (ECHO 11) was purchased from ATCC (Rockville, Md.). Virus stocks were propagated and antiviral assays were performed in MRC-5 cells (ATCC).
READOUT_NAME: CC50 at 4 days (µM)
Give bare numbers, in µM.

Notebook: Cc1cc(C(=O)N[C@H](C(=O)N[C@@H](Cc2ccc(F)cc2)C(=O)N[C@@H](C[C@@H]2CCNC2=O)C(=O)c2nc3ccccc3s2)C(C)C)no1 [Compound 28] , CC50 at 4 days read as 251

* * *

experiment: in vitro; details: human, mock-infected H1-HeLa cells
For each record, write down the corresponding CC50 at 2 days.

Take a look at these entries with their results.
molecule=CNC(=O)C(=O)[C@H](CNC(C)=O)NC(=O)[C@H](Cc1ccccc1)NC(=O)[C@H](CC(C)C)NC(=O)OCc1ccccc1 measured_value="> 320 µM"
molecule="CC(C)C[C@H](NC(=O)OCc1ccccc1)C(=O)N[C@@H](Cc1ccccc1)C(=O)N[C@@H](C[C@@H]1CCNC1=O)C(=O)c1ccccc1 [Compound 26, Cbz-L-Leu-L-Phe-L-[(S)-Pyrrol-Ala]-Ph]" measured_value="> 10 µM"

Memo: CC(C)C[C@H](NC(=O)OCc1ccccc1)C(=O)N[C@@H](Cc1ccccc1)C(=O)N[C@@H](C[C@@H]1CCNC1=O)C(=O)c1ccccn1 , reported CC50 at 2 days: 200 µM

* * *

molecular target: recombinant rhinovirus 3C protease, serotype 2 (Human rhinovirus 2, UniProt P04936); construct: Recombinant rhinovirus 3C proteases; assay: Inhibition of rhinovirus 3C protease (FRET assay), serotype 2; details: HRV-2 3C protease
Sequence (P04936 1508-1690): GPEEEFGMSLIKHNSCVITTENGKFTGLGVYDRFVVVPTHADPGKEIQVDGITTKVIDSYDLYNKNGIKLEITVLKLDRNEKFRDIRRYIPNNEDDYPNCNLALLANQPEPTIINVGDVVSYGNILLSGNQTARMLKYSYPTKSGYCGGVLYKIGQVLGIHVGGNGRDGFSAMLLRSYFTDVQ
READOUT_NAME: pKi
Give bare numbers, as −log10 of the molar value.

Before answering, review these 2 worked examples.
compound_string=C#CC(=O)[C@H](CNC(C)=O)NC(=O)[C@H](Cc1ccccc1)NC(=O)[C@H](CC(C)C)NC(=O)OCc1ccccc1 measured_value=6.91
compound_string=CC(=O)NC[C@H](NC(=O)[C@H](Cc1ccccc1)NC(=O)[C@H](CC(C)C)NC(=O)OCc1ccccc1)C(=O)COCCc1ccccc1 measured_value=4.96

Need pKi for each of these molecules.
1. CC(=O)NC[C@H](NC(=O)[C@H](Cc1ccccc1)NC(=O)[C@H](CC(C)C)NC(=O)OCc1ccccc1)C(=O)c1nc2ccccc2s1
2. COCC(=O)[C@H](CNC(C)=O)NC(=O)[C@H](Cc1ccccc1)NC(=O)[C@H](CC(C)C)NC(=O)OCc1ccccc1
3. CC(=O)NC[C@H](NC(=O)[C@H](Cc1ccccc1)NC(=O)[C@H](CC(C)C)NC(=O)OCc1ccccc1)C(=O)c1nccs1

[6.05, 4.89, 4.88]

* * *

target: recombinant rhinovirus 3C protease, serotype 16 (Human rhinovirus 16, UniProt Q82122); construct: Recombinant rhinovirus 3C proteases; assay: Inhibition of rhinovirus 3C protease (FRET assay), serotype 16; settings: HRV-16 3C protease
Sequence (Q82122 1511-1693): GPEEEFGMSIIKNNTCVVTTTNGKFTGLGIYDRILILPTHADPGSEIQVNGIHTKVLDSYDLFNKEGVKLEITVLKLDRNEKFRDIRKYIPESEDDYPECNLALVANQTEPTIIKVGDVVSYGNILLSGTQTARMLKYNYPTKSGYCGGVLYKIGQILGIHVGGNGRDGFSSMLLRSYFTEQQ
READOUT_NAME: Ki
Answer with the figure and its unit, nothing else.

compound="CC(=O)NC[C@H](NC(=O)[C@H](Cc1ccccc1)NC(=O)[C@H](CC(C)C)NC(=O)OCc1ccccc1)C(=O)c1nc2ccccc2s1 [Compound 9]" tested_system="recombinant rhinovirus 3C protease, serotype 16 (Human rhinovirus 16, UniProt Q82122)" measured_value="0.31 µM"
compound="CC(=O)NC[C@H](NC(=O)[C@H](Cc1ccccc1)NC(=O)[C@H](CC(C)C)NC(=O)OCc1ccccc1)C(=O)c1nccs1 [Compound 13]" tested_system="recombinant rhinovirus 3C protease, serotype 16 (Human rhinovirus 16, UniProt Q82122)" measured_value="4 µM"
compound="CC(=O)NC[C@H](NC(=O)[C@H](Cc1ccccc1)NC(=O)[C@H](CC(C)C)NC(=O)OCc1ccccc1)C(=O)COCCc1ccccc1 [Compound 18]" tested_system="recombinant rhinovirus 3C protease, serotype 16 (Human rhinovirus 16, UniProt Q82122)" measured_value="6.7 µM"
compound="C#CC(=O)[C@H](CNC(C)=O)NC(=O)[C@H](Cc1ccccc1)NC(=O)[C@H](CC(C)C)NC(=O)OCc1ccccc1 [Compound 14, Cbz-L-Leu-L-Phe-L-(N-Ac-amino-Ala)-C≡CH]" tested_system="recombinant rhinovirus 3C protease, serotype 16 (Human rhinovirus 16, UniProt Q82122)" measured_value="0.322 µM"

Known value: recombinant rhinovirus 3C protease, serotype 16 (Human rhinovirus 16, UniProt Q82122) Ki of the compound COCC(=O)[C@H](CNC(C)=O)NC(=O)[C@H](Cc1ccccc1)NC(=O)[C@H](CC(C)C)NC(=O)OCc1ccccc1 [Compound 19] equals 27 µM
